- experimental-system: Ba/F3 Bcr-Abl/E255K (Homo sapiens, UniProt P00519, E255K, cells depend on it)
- Construct: fused on or other part: P11274 (Breakpoint cluster region protein)
- measurement-notes: CCK-8 assay, Ba/F3 Bcr-Abl/E255K
- Assay type: cell-based
- experimental-setup: mouse, 72 h
experimental-endpoint: GI50 (µM)

{"molecule": "COC(=O)C=Cc1ccc(O)c(O)c1 [Compound 2]", "experimental-endpoint": "GI50", "val": 15}
{"molecule": "CCOC(=O)C=Cc1ccc(O)c(O)c1 [Compound 3]", "experimental-endpoint": "GI50", "val": 6.7}

A. CCCOC(=O)C=Cc1ccc(O)c(O)c1 [Compound 5]
B. CC(C)OC(=O)C=Cc1ccc(O)c(O)c1 [Compound 6]
Identify the item whose GI50 is the smaller number: A or B Indicate which entry you chose by stating its label. A

###

- experimental-system: Ba/F3 Bcr-Abl/M244V (Homo sapiens, UniProt P00519, M244V, cells depend on it)
- Construct: fused on or other part: P11274 (Breakpoint cluster region protein)
- measurement-notes: CCK-8 assay, Ba/F3 Bcr-Abl/M244V
- Assay type: cell-based
experimental-endpoint: GI50 (nM)

{"smiles-repr": "O=C(C=Cc1ccc(O)c(O)c1)N1CCC(Cc2ccccc2)CC1", "experimental-system": "Ba/F3 Bcr-Abl/M244V (Homo sapiens, UniProt P00519, M244V, cells depend on it)", "measurement-unit": "nM", "GI50": 1000}
{"smiles-repr": "O=C(C=Cc1ccc(O)c(O)c1)N1CCN(Cc2ccccc2)CC1", "experimental-system": "Ba/F3 Bcr-Abl/M244V (Homo sapiens, UniProt P00519, M244V, cells depend on it)", "measurement-unit": "nM", "GI50": 1300}

###

- Test system: K562
- measurement-notes: CCK-8 cell proliferation and cytotoxicity assay, K562
- Assay type: cell-based, Human
- experimental-setup: CCK-8, 72 h, imatinib mesylate sensitive K562; read-out: Inhibitory concentration (IC50), K562
IC50 listing for selected compounds.
Number only, in µM; omit the unit.

{"compound": "O=C(/C=C/c1ccc(O)c(O)c1)N1CCN(c2ccccc2)CC1 [Compound 13]", "experimental-endpoint": "IC50", "val": 33.5}
{"compound": "O=C(C=Cc1ccc(O)c(O)c1)N1CCN(Cc2ccccc2)CC1 [Compound 10]", "experimental-endpoint": "IC50", "val": 18}
{"compound": "O=C(C=Cc1ccc(O)c(O)c1)N1CCC(Cc2ccccc2)CC1 [Compound 19]", "experimental-endpoint": "IC50", "val": 5.7}

Entry CCN1CCN(C(=O)C=Cc2ccc(O)c(O)c2)CC1 [Compound 9] has what IC50? 59.5

###

- experimental-system: Ba/F3 Bcr-Abl/Q252H (Homo sapiens, UniProt P00519, Q252H, cells depend on it)
- Construct: fused on or other part: P11274 (Breakpoint cluster region protein)
- measurement-notes: CCK-8 assay, Ba/F3 Bcr-Abl/Q252H
- Format: cell-based
experimental-endpoint: GI50 (nM)

{"compound": "O=C(C=Cc1ccc(O)c(O)c1)N1CCN(Cc2ccccc2)CC1 [Compound 10]", "val": 1500}
{"compound": "O=C(C=Cc1ccc(O)c(O)c1)N1CCC(Cc2ccccc2)CC1 [Compound 19]", "val": 1100}

###

- experimental-system: Ba/F3 Bcr-Abl/Y253F (Homo sapiens, UniProt P00519, Y253F, cells depend on it)
- Construct: fused on or other part: P11274 (Breakpoint cluster region protein)
- measurement-notes: CCK-8 assay, Ba/F3 Bcr-Abl/Y253F
- Assay type: cell-based
- experimental-setup: mouse, 72 h
experimental-endpoint: GI50 (µM)

1. CCOC(=O)C=Cc1ccc(O)c(O)c1
2. CCCOC(=O)C=Cc1ccc(O)c(O)c1
Given the listed records, identify the one among 1 and 2 with higher GI50. Lab note: record the label of whichever item you select. 1

###

- experimental-system: Ba/F3 Bcr-Abl/T315I (Homo sapiens, UniProt P00519, T315I, cells depend on it)
- experimental-setup: ba/f3 bcr-abl/t315i
experimental-endpoint: GI50 (nM)

A. O=C(C=Cc1ccc(O)c(O)c1)N1CCN(Cc2ccccc2)CC1
B. O=C(C=Cc1ccc(O)c(O)c1)N1CCC(Cc2ccccc2)CC1
Decide: A or B , by lowest recorded GI50. Let me know the label of the one you choose. B
(B: 2100 nM, A: 3100 nM)

###

- experimental-system: Ba/F3 Bcr-Abl/H396R (Homo sapiens, UniProt P00519, H396R, cells depend on it)
- Construct: fused on or other part: P11274 (Breakpoint cluster region protein)
- measurement-notes: CCK-8 assay, Ba/F3 Bcr-Abl/H396R
- Format: cell-based
- experimental-setup: mouse, 72 h
experimental-endpoint: GI50 (µM)

Record excerpt, results attached:
{"smiles-repr": "COC(=O)C=Cc1ccc(O)c(O)c1", "experimental-endpoint": "GI50", "val": 18.8}
{"smiles-repr": "CC(C)OC(=O)C=Cc1ccc(O)c(O)c1", "experimental-endpoint": "GI50", "val": 7}

1. CCOC(=O)C=Cc1ccc(O)c(O)c1
2. CCCOC(=O)C=Cc1ccc(O)c(O)c1
Looking at recorded values for GI50, does 1 or 2 come in lower? Please identify the chosen entry by its label. 2
(2: 1.1 µM, 1: 8.6 µM)

###

- experimental-system: Ba/F3 Bcr-Abl/F317L (Homo sapiens, UniProt P00519, F317L, cells depend on it)
- Construct: fused on or other part: P11274 (Breakpoint cluster region protein)
- measurement-notes: CCK-8 assay, Ba/F3 Bcr-Abl/F317L
- Assay type: cell-based
- experimental-setup: mouse, 72 h
experimental-endpoint: GI50 (µM)

Would you please look over these solved cases?
{"smiles-repr": "CC(C)OC(=O)C=Cc1ccc(O)c(O)c1", "experimental-system": "Ba/F3 Bcr-Abl/F317L (Homo sapiens, UniProt P00519, F317L, cells depend on it)", "measurement-unit": "µM", "GI50": 11.3}
{"smiles-repr": "COC(=O)C=Cc1ccc(O)c(O)c1", "experimental-system": "Ba/F3 Bcr-Abl/F317L (Homo sapiens, UniProt P00519, F317L, cells depend on it)", "measurement-unit": "µM", "GI50": 23.5}

1. CCOC(=O)C=Cc1ccc(O)c(O)c1
2. CCCOC(=O)C=Cc1ccc(O)c(O)c1
Problem: Given the entries 1 and 2 , determine which has the lower reported GI50. Pick one and reply with its label. 2

###

- experimental-system: Ba/F3 Bcr-Abl/H396R (Homo sapiens, UniProt P00519, H396R, cells depend on it)
- Construct: fused on or other part: P11274 (Breakpoint cluster region protein)
- measurement-notes: CCK-8 assay, Ba/F3 Bcr-Abl/H396R
- Format: cell-based
experimental-endpoint: GI50 (nM)

{"smiles-repr": "O=C(C=Cc1ccc(O)c(O)c1)N1CCC(Cc2ccccc2)CC1", "measurement-unit": "nM", "GI50": 1400}
{"smiles-repr": "O=C(C=Cc1ccc(O)c(O)c1)N1CCN(Cc2ccccc2)CC1", "measurement-unit": "nM", "GI50": 1000}

###

- experimental-system: Ba/F3 Bcr-Abl/F359V (Homo sapiens, UniProt P00519, F359V, cells depend on it)
- Construct: fused on or other part: P11274 (Breakpoint cluster region protein)
- measurement-notes: CCK-8 assay, Ba/F3 Bcr-Abl/F359V
- Format: cell-based
- experimental-setup: mouse, 72 h
experimental-endpoint: GI50 (µM)

Please review the entries below; each comes with its answer.
{"smiles-repr": "CC(C)OC(=O)C=Cc1ccc(O)c(O)c1", "measurement-unit": "µM", "GI50": 14.6}
{"smiles-repr": "COC(=O)C=Cc1ccc(O)c(O)c1", "measurement-unit": "µM", "GI50": 18.4}

1. CCCOC(=O)C=Cc1ccc(O)c(O)c1
2. CCOC(=O)C=Cc1ccc(O)c(O)c1
Identify the entry with the larger GI50. Options: 1 and 2 The response must carry the label of the picked entry. 2
(2: 13.4 µM, 1: 2.5 µM)

###

- experimental-system: Ba/F3 Bcr-Abl/Q252H (Homo sapiens, UniProt P00519, Q252H, cells depend on it)
- Construct: fused on or other part: P11274 (Breakpoint cluster region protein)
- measurement-notes: CCK-8 assay, Ba/F3 Bcr-Abl/Q252H
- Format: cell-based
- experimental-setup: mouse, 72 h
experimental-endpoint: GI50 (µM)

P. CCCOC(=O)C=Cc1ccc(O)c(O)c1
Q. CC(C)OC(=O)C=Cc1ccc(O)c(O)c1
Pick one: P or Q . Which one has the lower reported GI50? When you have decided, please share the label of that item. P
(P: 1.7 µM, Q: 5.9 µM)
